Consider the following binders; for each one, report its 100 nM Ag Bound.
Biological target: T1, Mouse IL2Rγ extracellular domain expressed with a C-terminal myc-myc-hexahistidine tag (mouse)
T1 construct: whole entry is the tagged construct; also called mIL-2Rg-MMH
T1 chain: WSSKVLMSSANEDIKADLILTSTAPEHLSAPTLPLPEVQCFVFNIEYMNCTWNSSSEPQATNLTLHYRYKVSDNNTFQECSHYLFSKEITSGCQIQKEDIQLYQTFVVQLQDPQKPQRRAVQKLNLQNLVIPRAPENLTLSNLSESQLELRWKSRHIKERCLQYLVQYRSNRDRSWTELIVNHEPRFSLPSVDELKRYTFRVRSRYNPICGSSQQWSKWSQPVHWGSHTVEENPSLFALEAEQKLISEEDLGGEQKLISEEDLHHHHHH
Test: SPR Biacore 4000, anti-hFc-captured mAb, 25 C
The answer is to be given in RU; state only the numeric part.

So for H4H13541P (antibody, human IgG4 S228P, kappa, V domains shown, fully human anti-IL2Rgamma mAb, human IgG4 Fc) VH: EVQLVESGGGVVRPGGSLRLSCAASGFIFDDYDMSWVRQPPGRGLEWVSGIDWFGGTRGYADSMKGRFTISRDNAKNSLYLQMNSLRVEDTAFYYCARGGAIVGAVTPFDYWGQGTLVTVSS VL: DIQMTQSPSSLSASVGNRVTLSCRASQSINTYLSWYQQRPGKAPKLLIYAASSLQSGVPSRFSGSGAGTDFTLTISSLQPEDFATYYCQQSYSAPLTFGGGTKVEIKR , the logged 100 nM Ag Bound turned out to be 5

For record H4H12857P (antibody, human IgG4 S228P, kappa, V domains shown, fully human anti-IL2Rgamma mAb, human IgG4 Fc; also called REGN9432) VH: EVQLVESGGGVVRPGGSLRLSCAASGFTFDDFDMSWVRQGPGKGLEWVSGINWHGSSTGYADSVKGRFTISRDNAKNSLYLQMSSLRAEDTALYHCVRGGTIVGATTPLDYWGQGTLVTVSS VL: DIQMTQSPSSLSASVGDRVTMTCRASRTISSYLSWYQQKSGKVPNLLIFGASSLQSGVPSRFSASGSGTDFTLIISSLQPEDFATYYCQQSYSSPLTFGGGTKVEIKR the listed 100 nM Ag Bound is 5

Entry H4H12889P (antibody, human IgG4 S228P, kappa, V domains shown, fully human anti-IL2Rgamma mAb, human IgG4 Fc; also called REGN7257) VH: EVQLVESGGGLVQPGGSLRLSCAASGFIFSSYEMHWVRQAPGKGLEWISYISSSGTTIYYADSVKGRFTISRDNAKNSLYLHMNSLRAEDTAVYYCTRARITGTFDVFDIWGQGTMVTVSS VL: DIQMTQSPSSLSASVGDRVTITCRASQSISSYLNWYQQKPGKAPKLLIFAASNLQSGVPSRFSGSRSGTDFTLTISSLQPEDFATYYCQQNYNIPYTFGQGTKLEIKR — recorded 100 nM Ag Bound = 1

Briefly, 100 nM Ag Bound measured for H4H12890P (antibody, human IgG4 S228P, kappa, V domains shown, fully human anti-IL2Rgamma mAb, human IgG4 Fc) VH: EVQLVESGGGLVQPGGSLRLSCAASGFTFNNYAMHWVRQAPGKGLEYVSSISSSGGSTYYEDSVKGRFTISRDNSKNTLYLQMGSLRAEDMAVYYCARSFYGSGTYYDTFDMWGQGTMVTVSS VL: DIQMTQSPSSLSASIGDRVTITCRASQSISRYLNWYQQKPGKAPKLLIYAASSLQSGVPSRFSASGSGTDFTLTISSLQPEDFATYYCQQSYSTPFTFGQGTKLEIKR : 1

Lookup result for H4H12863P (antibody, human IgG4 S228P, kappa, V domains shown, fully human anti-IL2Rgamma mAb, human IgG4 Fc) VH: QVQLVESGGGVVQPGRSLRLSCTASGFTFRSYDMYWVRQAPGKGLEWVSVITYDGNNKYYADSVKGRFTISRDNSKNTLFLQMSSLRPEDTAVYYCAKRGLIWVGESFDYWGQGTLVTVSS VL: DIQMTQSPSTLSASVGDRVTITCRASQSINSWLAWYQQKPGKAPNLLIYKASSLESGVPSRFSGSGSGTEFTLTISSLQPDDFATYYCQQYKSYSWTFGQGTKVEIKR ; measured 100 nM Ag Bound: 2
